assay text: TOR pathway LAP4-GFP level changes – S. cerevisiae, multiplex flow cytometry, primary screen (AID 1873)
setup conditions: S. cerevisiae LAP4-GFP expression, 3 h, at 10 µM, stronger effect = higher value
Records with an inconclusive call do not appear.
parameter measured: GFP response vs DMSO (%)

• C#C[C@]1(O)CC[C@H]2[C@@H]3CCc4cc(OC)ccc4[C@H]3CC[C@@]21C = 126
• C=CCC1(Cl)C(=O)C(Cl)=C(N2CCOCC2)C1(OC)OC (stereo unspecified) = 99.1
• COc1ccc(C(=O)NCCC2=CCCCC2)cc1[N+](=O)[O-] = 114
• COc1cc(NS(=O)(=O)c2ccc(N)cc2)nc(OC)n1 = 96.5
• c1ccc(Nc2ccccn2)nc1 = 115
• Cc1coc2c1c(C)cc1oc(=O)c(Cc3ccccc3)c(C)c12 = 93.7
• CC(C)N(Cc1nccn1C)C(=O)CC1C(=O)NCCN1Cc1ccccc1C(F)(F)F (stereo unspecified) = 97
• O=C(/C=C/c1ccco1)Nc1ccccc1C(=O)O = 94.8
• CCOc1ccc2nc(N/C(N)=N/S(C)(=O)=O)nc(C)c2c1 = 84.7
• CC(=O)Nc1ccc(CN2CCN(C3CCCCC3)C(CCO)C2)cc1 (stereo unspecified) = 114
• O=C1C(=O)c2ccccc2C(O)=C1c1ccccc1F = 109

###

GFP response vs DMSO values by entry
assay text: TOR pathway LAP4-GFP level changes – S. cerevisiae, multiplex flow cytometry, primary screen (AID 1873)
setup conditions: S. cerevisiae LAP4-GFP expression, 3 h, at 10 µM, stronger effect = higher value
Inconclusive results are not listed. Active and inactive are the calls of the source.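 How the source made its calls: active means GFP signal, as percent of the solvent control, above the screen mean plus 3 SD, about 149; inconclusive means no reading because the compound's own fluorescence upset strain identification; inactive means the rest.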
parameter measured: GFP response vs DMSO

• O=C(Cc1ccccc1)NCC(=O)OCC(=O)c1ccccc1Cl = 74.3% (inactive)
• COc1ccc(OC)c(C(=O)c2coc3ccc(O)cc23)c1 = 146% (inactive)
• N#C/C(C(N)=O)=c1/ccc2c(c1)N1C3=C(CCCC3)CC3CCCCC31N=2 (stereo unspecified) = 170% (active)
• O=c1cnn([C@@H]2O[C@H](CO)[C@@H](O)[C@H]2O)c(=O)[nH]1 = 129% (inactive)
• COc1ccc(C2C3CCCCC3(O)CCN2C(=O)c2cccs2)cc1 (stereo unspecified) = 107% (inactive)
• CC(=O)OCC(=O)[C@@]1(O)CC[C@H]2[C@@H]3CCC4=CC(=O)C=C[C@]4(C)[C@H]3[C@@H](O)C[C@@]21C = 101% (inactive)
• COc1ccc(CCN(C)CCCC(C#N)(c2cc(OC)c(OC)c(OC)c2)C(C)C)cc1OC (stereo unspecified) = 82.8% (inactive)
• C[C@]12C[C@H](O)[C@H]3[C@@H](CCC4=CC(=O)CC[C@@]43C)[C@@H]1CC[C@@H]2C(=O)CO = 78.1% (inactive)
• COc1ccc(-n2cc(CNCc3cccnc3)c(-c3cccc(F)c3)n2)cc1 = 110% (inactive)
• CC1(C)CC(=O)c2c(nc3ccccc3c2N)C1 = 104% (inactive)
• COc1ccc2c(CC(=O)NCC3CCC(C(=O)O)CC3)cc(=O)oc2c1 (stereo unspecified) = 101% (inactive)
• Nc1nc2c(nc(SCc3ccccc3Br)n2C2OC(CO)C(O)C2O)c(=O)[nH]1 (stereo unspecified) = 108% (inactive)
• OC(CCN1CCCCC1)(c1ccccc1)c1ccccc1 = 86.9% (inactive)
• CCn1c(SCC(=O)c2ccccc2)nc2ccccc2c1=O = 115% (inactive)
• CC(=O)NC(Cc1c[nH]c2ccccc12)C(=O)N/N=C/c1ccccc1 (stereo unspecified) = 99.1% (inactive)
• Cc1ccccc1-c1nn(-c2ccc(F)cc2F)cc1CNCCN(C)C = 98.6% (inactive)
• Cc1ccc(S(=O)(=O)NC(C(=O)Oc2cc3oc(=O)cc(C)c3cc2Cl)C(C)C)cc1 (stereo unspecified) = 103% (inactive)
• O=C(COc1ccccc1)Nc1ccc2c(c1)C(=O)N(CC1CCCO1)C2=O (stereo unspecified) = 113% (inactive)
• COC(=O)C1=CN(Cc2cccs2)C=C(C(=O)OC)C1c1cccc(Cl)c1 = 92.3% (inactive)
• COc1ccc(C(=O)Nc2cccc3cccnc23)cc1OC = 119% (inactive)
• CSc1cccc(NC(=O)/C=C/c2ccccc2)c1 = 83.1% (inactive)

###

assay text: cytosolic pH regulators acting via V-ATPase – S. cerevisiae, pHLuorin, HTS validation (AID 504600);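 also: plate controls were DMSO for no effect and reference compound for full effect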
setup conditions: V-ATPase proton transport, at 10 µM, stronger effect = higher value
parameter measured: response (%)

• COC(=O)c1ccccc1NC(=O)NCc1ccccc1 = 1.35
• Cc1nc(C2CC(=O)OC23CCCCC3)cs1 (centres undefined) = 1.08
• CC(=O)Oc1ccc(C(c2ccc(OC(C)=O)cc2)c2ccccn2)cc1 = -1.07
• CCOC(=O)c1ccc(N2C(=O)C(CC(=O)NC)N(CCc3ccc(OC)c(OC)c3)C2=S)cc1 (centres undefined) = 0.17
• CCn1c(N2CCN(CC(=O)c3c(C)n(C)c4ccc(OC)cc34)CC2)nc2c1c(=O)[nH]c(=O)n2C = -2.91
• O=C(N/N=C/c1ccc([N+](=O)[O-])o1)c1ccc(O)cc1 = 4
• CCc1cc2c(=O)c(-c3ccc4c(c3)OCCO4)coc2c(CN2CCCCC2C)c1O (centres undefined) = 3.99
• COc1cc(CNc2nnnn2C)ccc1OCc1ccc(F)cc1Cl = 0.17
• CC12CN3CC(C)(CN(C1)C3c1ccc([N+](=O)[O-])o1)C2 (centres undefined) = 2.45
• c1ccc(-c2ccccn2)nc1 = -2.77
• CC(C)c1cc(=O)oc2c3c4c(cc12)CCCN4CCC3 = 21.6
• Cc1ccc2[nH]c(=O)c(Cc3ccccc3)c(O)c2c1 = 4.49
• CCOc1ccc(OCCSc2nc3ccccc3[nH]2)cc1 = 1.04
• CC(NC(=O)c1ccc(N2CCNCC2)c([N+](=O)[O-])c1)C12CC3CC(CC(C3)C1)C2 (centres undefined) = 0.8
• O=C(NO)c1ccccc1O = -8.07
• CCOc1ccc2nc(S(N)(=O)=O)sc2c1 = -4.65
• Cc1ccnc2c1NC(=O)c1cccnc1N2C1CC1 = 0.42
• CC(=O)NC(Cc1ccccc1)C(=O)OCC(=O)c1ccccc1 (centres undefined) = 3.98
• CCOC(=O)C1(Cc2cccc(Cl)c2)CCCN(C2CCN(C(C)=O)CC2)C1 (centres undefined) = -5.5
• NC(=O)c1cccnc1 = 1.76
• COc1ccccc1NC(=O)Cn1c(C)cc(=O)c2cccc(OC)c21 = 0.11
• CC(C)(C)N(Cc1ccccc1)C(=O)c1ccc(Br)o1 = -8.19
• COc1ccc2c(c1)C=CC1(O2)N(CCO)c2ccccc2C1(C)C (centres undefined) = 7.05
• CCOC(=O)N1CCc2[nH]c3ccc(C)cc3c2C1 = 14.9

###

vesicle binding response values by entry
assay text: reduced mouse 2C T cell binding to pMHC/ICAM-1 vesicles – MLPCN validation set, flow cytometry, LFA-1/ICAM-1 modulator project, pilot screen (AID 2523);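 also: mean PE anti-B7-1 fluorescence of CD8+ cells relative to row control; 100% = QL9-loaded vesicles with DMSO vehicle in the same plate row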
setup conditions: 2C mouse CD8+ T cells, at 7 µM, stronger effect = lower value
parameter measured: vesicle binding response (%)

- CCn1c(C)cc2c(c1=O)C(c1ccccc1)C(C(=O)OC)=C(N)O2 (stereo not drawn): 167
- NC(=O)c1ncn([C@@H]2O[C@H](CO)[C@@H](O)[C@H]2O)c1O: 164
- O=Cc1ccccc1Oc1ccccc1: 200
- Cn1nnnc1SCC1=C(C(=O)O)N2C(=O)[C@@H](NC(=O)[C@H](O)c3ccccc3)[C@H]2SC1: 318
- O=C(O)[C@@H](O)c1ccccc1: 168
- COc1ccc(Cc2noc(CN(C)CCN3CCc4ccccc4C3)n2)cc1OC: 232
- CC(=O)Oc1cc2oc(=O)cc(C)c2cc1OC(C)=O: 207
- CCCCCC#CCC#CCC#CCC#CCCCC(=O)O: 208
- O=C(O)CCNC(=O)c1ccccc1: 186
- COc1ccc(-c2nc3c(=O)n(C)c(=O)[nH]c3n2CCc2ccccc2)cc1: 232
- C[C@]12CC[C@@H]3c4ccc(O)cc4CC[C@H]3[C@@H]1C[C@@H](O)[C@@H]2O[C@@H]1O[C@H](C(=O)O)[C@@H](O)[C@H](O)[C@H]1O: 249
- COc1ccc(-c2nnc(-c3cc4c(ccc5ccccc54)oc3=O)o2)cc1: 244
- Cc1ccc(CSCC(=O)N2CCCC2)cc1: 132
- O=S(=O)(CCc1nc2ccccc2[nH]1)c1ccc(Cl)cc1: 159
- CCOc1ccc(OCCSc2nc3ccccc3[nH]2)cc1: 186
- CC(C)OC(=O)CC12CN3CN(C1)CC(CC(=O)OC(C)C)(C3)C2=O: 179
- COc1ccc(C(C)N2CC34C=CC(O3)C(C(=O)OCC(C)C)C4C2=O)cc1 (stereo not drawn): 5650
- O=C(c1cccc2ccccc12)C1CCCN(C(=O)CCN2CCCO2)C1 (stereo not drawn): 377
- Cc1coc2cc3oc(=O)c(CCC(=O)O)c(C)c3cc12: 223
- COc1cc(CO)ccc1OCc1nnnn1-c1ccc(C)cc1: 163
- CC1(C)C(C=C(Cl)Cl)C1C(=O)N1CCN(Cc2ccccc2)CC1 (stereo not drawn): 329
- O=C(OCCNC(=O)c1ccc2ccccc2n1)c1ccc(F)cc1: 241
- CCc1cc(-c2[nH]ncc2-c2ccc3c(c2)OCO3)c(O)cc1O: 13.8
